// provenance: patent US7220784B2

Tested on: K562 cells
Assay method text: In situ ultra violet irradiation of dosed K562 cells, IC50
Type: cell-based, human
Setup conditions: Homo sapiens, K562, in situ UV, repeated experiment, 15 secs (Table 7); read-out: IC50 K562
Readout name: IC50 (nM)
Numeric answer only, unit nM assumed.

Please give the measured IC50 for this compound: COc1ccc(/C=C/c2cc(OC)c(OC)c(OC)c2)cc1O [trans-CA-4, trans-combretastatin A-4] 20

----------
Tested on: K562 cells
Assay method text: In situ ultra violet irradiation of dosed K562 cells, IC50
Format: cell-based, human
Setup conditions: Homo sapiens, K562, 0.15 h, in situ UV 9 mins (Table 6); read-out: IC50 K562
Readout name: pIC50
When answering, recall that pIC50 equals minus log10 of the concentration in mol/L, and write that number alone.

Please give the measured pIC50 for this molecule: COc1ccc(/C=C/c2cc(OC)c(OC)c(OC)c2)cc1O [trans-CA-4, trans-combretastatin A-4] 8.60

----------
System: K562 cells
Assay method text: In situ ultra violet irradiation of dosed K562 cells, IC50
Assay type: cell-based, human
Setup conditions: Homo sapiens, K562, in situ UV, repeated experiment, 10 secs (Table 7); read-out: IC50 K562
Readout name: IC50
# answer = value followed by unit

Please give the measured IC50 for this compound: COc1ccc(/C=C/c2cc(OC)c(OC)c(OC)c2)cc1O [trans-CA-4, trans-combretastatin A-4] 0.04 µM

----------
System: HUVEC
Assay method text: Growth inhibition studies using HUVEC
Format: cell-based, human
Setup conditions: Homo sapiens, HUVEC
Experimental: The following assays (1–5) were carried out as described in our paper (Woods, et al, British Journal of Cancer, 71, 705–711 (1995)). […] Tubulin assembly is monitored by light scatter/absorption at 350 nm. (2) Competition for the colchicine binding site on tubulin. […] Animals (n=5) were trated either with 5 daily injections and tumour size measured with time following treatment. • (7) The pharmacokinetic profile of agents was determined in mice following injection with drug. […]
pIC50: −log10 of the molar value.
Use 1.0 when the recorded pIC50 is no lower than 7; use 0.0 when it is lower.

Determine whether this molecule has pIC50 no lower than 7: COc1ccc(/C=C\c2cc(C)c(C)c(C)c2)cc1O [Compound 133] 1.0

Determine whether this molecule has pIC50 no lower than 7: CCOc1cc(C=Cc2ccc(OC)c(O)c2)cc(OCC)c1OCC [Compound 253] 1.0

Determine whether this molecule has pIC50 no lower than 7: COC1=CC(=O)C(/C=C\c2cc(OC)c(OC)c(OC)c2)=CC1=O [Compound 97-96] 0.0

Determine whether this molecule has pIC50 no lower than 7: COc1ccc(C=Cc2cc(OC)c(OC)c(OC)c2)cc1F [Compound 97-64H] 1.0

Determine whether this molecule has pIC50 no lower than 7: COc1cc(C=Cc2ccc(C)c(O)c2)cc(OC)c1OC [Compound 98-21] 1.0

Determine whether this molecule has pIC50 no lower than 7: COc1ccc(C=Cc2cc(OC)c(OC)c(OC)c2)cc1OCc1ccccc1[N+](=O)[O-] [Compound 98-29] 0.0

Determine whether this molecule has pIC50 no lower than 7: CCOc1cc(C=Cc2ccc(OC)c(F)c2)cc(OCC)c1OCC [Compound 251] 0.0

----------
Tested on: K562
Assay method text: IC50 of aliquots after ex situ irradiation in a photochemical reactor
Setup conditions: Homo sapiens, K562, light or radiation study, 0 h, read-out: IC50 (K562) (nM)
Readout name: IC50 (nM)
Numeric answer only, unit nM assumed.

Please give the measured IC50 for this molecule: COc1ccc(/C=C/c2cc(OC)c(OC)c(OC)c2)cc1O [trans-CA-4, trans-combretastatin A-4] 4000

----------
System: K562 cells
Assay method text: In situ ultra violet irradiation of dosed K562 cells, IC50
Format: cell-based, human
Setup conditions: in situ UV 2 mins (Table 9); read-out: IC50 K562 (nm)
Readout name: pIC50
When answering, recall that pIC50 equals minus log10 of the concentration in mol/L, and write that number alone.

Please give the measured pIC50 for this molecule: COC(=O)CCCOc1cc([N+](=O)[O-])c(COc2cc(/C=C/c3cc(OC)c(OC)c(OC)c3)ccc2OC)cc1OC 6.89

----------
Tested on: K562
Assay method text: IC50 of aliquots after ex situ irradiation in a photochemical reactor
Setup conditions: read-out: IC50 K562; ex situ irradiation in benzene, 400W Hg lamp, 1.0 mins (Table 8)
Readout name: pIC50
When answering, recall that pIC50 equals minus log10 of the concentration in mol/L, and write that number alone.

Please give the measured pIC50 for this compound: COC(=O)CCCOc1cc([N+](=O)[O-])c(COc2cc(/C=C/c3cc(OC)c(OC)c(OC)c3)ccc2OC)cc1OC 6.35

----------
Test system: K562 cells
Assay method text: In situ ultra violet irradiation of dosed K562 cells, IC50
Format: cell-based, human
Setup conditions: Homo sapiens, K562, in situ UV, repeated experiment, 50 secs (Table 7); read-out: IC50 K562
Readout name: IC50 (nM)
Numeric answer only, unit nM assumed.

Please give the measured IC50 for this compound: COc1ccc(/C=C/c2cc(OC)c(OC)c(OC)c2)cc1O [trans-CA-4, trans-combretastatin A-4] 9

----------
Assay method text: Pharmacokinetic profile in mice
Assay type: in vivo
Setup conditions: mouse, in vivo, po, 200 mg/kg, elimination half life
Readout name: half-life (min)
Numeric answer only, unit min assumed.

Please give the measured half-life for this compound: COc1ccc(C=Cc2cc(OC)c(OC)c(OC)c2)cc1F [Compound 97-64H] 32

----------
System: A2780/ADR
Assay method text: Cytotoxicity/growth inhibition assay (MTT), A2780/ADR
Assay type: cell-based
Readout name: IC50

Please give the measured IC50 for this molecule: COc1ccc(/C=C\c2cc(OC)c(OC)c(OC)c2)cc1OC(=O)C(Cc1c[nH]cn1)NC(=O)OC(C)(C)C (centres unmarked) 4.3 nM

Please give the measured IC50 for this molecule: COc1ccc(/C=C\c2cc(OC)c(OC)c(OC)c2)cc1OC(=O)C(Cc1ccc(O)cc1)NC(=O)OC(C)(C)C (centres unmarked) 6.4 nM

----------
System: colchicine binding site on tubulin
Assay method text: Competition for the colchicine binding site on tubulin
Use Y when the recorded Colchicine % Inhibition is no lower than 4%; use N when it is lower.

Determine whether this compound has Colchicine % Inhibition no lower than 4%: COc1ccc(/C=C\c2cc(OC)c(OC)c(OC)c2)cc1Oc1c(F)c(F)nc(F)c1F [Compound 97-13H] Y

Determine whether this compound has Colchicine % Inhibition no lower than 4%: COc1ccc(C=Cc2cc(OC)c(OC)c(OC)c2)cc1OC(=O)c1ccncc1 N

Determine whether this compound has Colchicine % Inhibition no lower than 4%: COc1ccc(C=Cc2cc(OC)c(OC)c(OC)c2)cc1OCc1ccccc1[N+](=O)[O-] Y

Determine whether this compound has Colchicine % Inhibition no lower than 4%: COc1cc(C=Cc2ccc(C)c(O)c2)cc(OC)c1OC N

Determine whether this compound has Colchicine % Inhibition no lower than 4%: COc1ccc(C=Cc2cc(OC)c(OC)c(OC)c2)cc1F [Compound 97-64L] Y

Determine whether this compound has Colchicine % Inhibition no lower than 4%: COc1cc(C=Cc2cc(F)c(OC)c(F)c2)cc(OC)c1OC Y

Determine whether this compound has Colchicine % Inhibition no lower than 4%: COc1ccc(C=Cc2cc(OC)c(OC)c(OC)c2)c(F)c1F N

Determine whether this compound has Colchicine % Inhibition no lower than 4%: COc1cc(/C=C\c2ccc(C)c(F)c2)cc(OC)c1OC [Compound 98-35H] Y

----------
System: K562
Assay method text: IC50 of aliquots after ex situ irradiation in a photochemical reactor
Setup conditions: read-out: IC50 K562; ex situ irradiation in benzene, 400W Hg lamp, 0.5 mins (Table 8)
Readout name: pIC50
When answering, recall that pIC50 equals minus log10 of the concentration in mol/L, and write that number alone.

Please give the measured pIC50 for this compound: COC(=O)CCCOc1cc([N+](=O)[O-])c(COc2cc(/C=C/c3cc(OC)c(OC)c(OC)c3)ccc2OC)cc1OC 4.84

----------
Tested on: K562
Assay method text: IC50 of aliquots after ex situ irradiation in a photochemical reactor
Setup conditions: read-out: IC50 K562; ex situ irradiation in benzene, 400W Hg lamp, 10.0 mins (Table 8)
Readout name: pIC50
When answering, recall that pIC50 equals minus log10 of the concentration in mol/L, and write that number alone.

Please give the measured pIC50 for this molecule: COC(=O)CCCOc1cc([N+](=O)[O-])c(COc2cc(/C=C/c3cc(OC)c(OC)c(OC)c3)ccc2OC)cc1OC [Compound E-8] 8.22

----------
Could you please report measured pIC50 for the items listed next?
Tested on: P388 murine leukaemia cell line
Assay method text: Cytotoxicity/growth inhibition assay (MTT), P388
Type: cell-based
Setup conditions: MTT
When answering, recall that pIC50 equals minus log10 of the concentration in mol/L, and write that number alone.

Form field - read-out: pIC50; system: P388 murine leukaemia cell line; submitted item: COc1ccc(C=Cc2cc(OC)c(OC)c(OC)c2)cc1F [Compound 97-64L] 6.77

Form field - read-out: pIC50; system: P388 murine leukaemia cell line; submitted item: COc1ccc(/C=C/c2ccc(C)c(C)c2)cc1 4.69

Form field - read-out: pIC50; system: P388 murine leukaemia cell line; submitted item: COc1cc(/C=C\C2=CC(=O)C(C)=CC2=O)cc(OC)c1OC 5.66

Form field - read-out: pIC50; system: P388 murine leukaemia cell line; submitted item: COc1ccc(C=Cc2cc(OC)c(OC)c(OC)c2)cc1F [Compound 97-64H] 9.31

Form field - read-out: pIC50; system: P388 murine leukaemia cell line; submitted item: COc1cc(C=Cc2ccc(C=O)cc2)cc(OC)c1OC 6.49

Form field - read-out: pIC50; system: P388 murine leukaemia cell line; submitted item: COc1ccc(C=Cc2cc(OC)c(OC)c(OC)c2)cc1OC(=O)c1ccncc1 [Compound 96-167] 9.10
